system.name: recombinant human SAE enzyme (Homo sapiens (Human))
Sequence (Q9UBT2 whole entry): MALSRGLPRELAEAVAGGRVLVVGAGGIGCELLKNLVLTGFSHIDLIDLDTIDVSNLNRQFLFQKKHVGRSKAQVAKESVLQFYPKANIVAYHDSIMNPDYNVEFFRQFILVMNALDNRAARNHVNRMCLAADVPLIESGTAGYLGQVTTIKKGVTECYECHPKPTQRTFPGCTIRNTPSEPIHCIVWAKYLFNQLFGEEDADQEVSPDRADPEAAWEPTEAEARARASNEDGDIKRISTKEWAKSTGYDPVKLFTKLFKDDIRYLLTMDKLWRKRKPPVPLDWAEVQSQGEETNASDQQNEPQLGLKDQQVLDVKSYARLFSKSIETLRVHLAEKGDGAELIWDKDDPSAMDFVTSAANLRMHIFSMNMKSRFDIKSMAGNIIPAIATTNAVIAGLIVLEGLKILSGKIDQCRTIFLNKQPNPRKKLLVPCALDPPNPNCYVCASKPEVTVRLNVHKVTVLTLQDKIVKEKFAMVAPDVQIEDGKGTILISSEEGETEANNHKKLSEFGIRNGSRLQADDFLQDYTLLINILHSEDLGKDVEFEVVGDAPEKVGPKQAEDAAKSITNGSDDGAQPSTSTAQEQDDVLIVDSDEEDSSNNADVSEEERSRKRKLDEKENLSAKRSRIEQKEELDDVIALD
Sequence (Q9UBE0 whole entry partner): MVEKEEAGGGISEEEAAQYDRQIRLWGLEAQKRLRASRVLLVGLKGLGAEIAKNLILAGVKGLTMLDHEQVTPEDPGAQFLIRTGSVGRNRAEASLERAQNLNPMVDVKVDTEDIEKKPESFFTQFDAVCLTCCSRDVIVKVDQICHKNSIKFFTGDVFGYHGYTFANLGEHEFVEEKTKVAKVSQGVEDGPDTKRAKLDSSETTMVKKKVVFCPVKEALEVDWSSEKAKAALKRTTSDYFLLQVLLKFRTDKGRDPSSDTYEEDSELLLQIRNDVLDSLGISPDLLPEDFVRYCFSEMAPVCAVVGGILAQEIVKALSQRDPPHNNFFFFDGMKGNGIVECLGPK
test.name: SAE HTRF enzyme assay
Format: biochemical
setup.conditions: SAE inhibition at compound concentration 0.111 μM
Where a name gives a salt, the structure may show the parent alone.
measured.parameter: Percent Inhibition (%)
A number alone suffices; assume %.

Quick note, Percent Inhibition for Cc1sc(C(=O)c2cncnc2N[C@@H]2C[C@H](COS(N)(=O)=O)[C@@H](O)C2)cc1[C@@H]1OCCc2oc(Cl)cc21 (mixture of isomers) [I-298] landed at 96

Quick note, Percent Inhibition for Cc1nc2c(s1)[C@H](c1cc(C(=O)c3cncnc3N[C@@H]3C[C@H](COS(N)(=O)=O)[C@@H](O)C3)sc1C)OCC2 (single isomer, unassigned) [I-305b] landed at 98

Quick note, Percent Inhibition for NS(=O)(=O)OC[C@H]1C[C@@H](Nc2ncncc2C(=O)c2cc([C@H]3OCCc4cccc(Cl)c43)cs2)C[C@@H]1O [I-365] landed at 62

Quick note, Percent Inhibition for CCc1ccc2c(c1)[C@H](c1cc(C(=O)c3cncnc3N[C@@H]3C[C@H](COS(N)(=O)=O)[C@@H](O)C3)sc1C)OCC2 (mixture of isomers) [I-346] landed at 99

Quick note, Percent Inhibition for NS(=O)(=O)OC[C@H]1C[C@@H](Nc2ncncc2C(=O)c2cc([C@@H]3OCCc4cc(Cl)ccc43)cs2)C[C@@H]1O [I-357] landed at 97

Quick note, Percent Inhibition for Cc1sc(C(=O)c2cncnc2N[C@@H]2C[C@H](COS(N)(=O)=O)[C@@H](OC(=O)[C@H](C)N)C2)cc1[C@@H]1OCCc2ccc(Cl)cc21 [I-362, hydrochloride] landed at 91

Quick note, Percent Inhibition for NS(=O)(=O)OC[C@H]1C[C@@H](Nc2ncncc2C(=O)c2cc([C@H]3NCCc4ccccc43)c(Cl)s2)[C@H](O)[C@@H]1O (mixture of isomers) [I-302] landed at 100

Quick note, Percent Inhibition for Cc1sc(C(=O)c2cncnc2N[C@@H]2C[C@H](COS(N)(=O)=O)[C@@H](O)C2)cc1[C@H]1NCCc2ccccc21 (single isomer, unassigned) [I-292b] landed at 87

Quick note, Percent Inhibition for Cc1nc2c(s1)CCO[C@H]2c1cc(C(=O)c2cncnc2N[C@@H]2C[C@H](COS(N)(=O)=O)[C@@H](O)C2)sc1C (single isomer, unassigned) [I-287b] landed at 98

Quick note, Percent Inhibition for Cc1sc(C(=O)c2cncnc2N[C@@H]2C[C@H](COS(N)(=O)=O)[C@@H](O)C2)cc1[C@H]1OCOc2ccccc21 (mixture of isomers) [I-280] landed at 98

Quick note, Percent Inhibition for NS(=O)(=O)OC[C@H]1C[C@@H](Nc2ncncc2C(=O)c2cc([C@@H]3OCc4ccc(Cl)cc43)c(Cl)s2)C[C@@H]1O (single isomer, unassigned) [I-310a] landed at 27

Quick note, Percent Inhibition for Cc1sc(C(=O)c2cncnc2N[C@@H]2C[C@H](COS(N)(=O)=O)[C@@H](O)C2)cc1[C@H]1SCc2ccc(Cl)cc21 (racemic) [I-359b] landed at 95

Quick note, Percent Inhibition for NS(=O)(=O)OC[C@H]1C[C@@H](Nc2ncncc2C(=O)c2cc([C@@H]3NCCc4ccc(Cl)cc43)c(Cl)o2)C[C@@H]1O (single isomer, unassigned) [I-299b] landed at 93

Quick note, Percent Inhibition for NS(=O)(=O)OC[C@H]1C[C@@H](Nc2ncncc2C(=O)c2ccc([C@@H]3OCCCc4ccc(Cl)cc43)s2)C[C@@H]1O (single isomer, unassigned) [I-343b] landed at 84

Quick note, Percent Inhibition for NS(=O)(=O)OC[C@H]1C[C@@H](Nc2ncncc2C(=O)c2cc([C@@H]3OCc4ccc(Cl)cc43)c(Cl)s2)C[C@@H]1O (single isomer, unassigned) [I-310b] landed at 98
